pIC50: −log10 of the molar value.
Entries below carry reported pIC50 on PIK3CG (human).

Give the measured pIC50 of CCc1ccccc1-n1c(Cn2nc(-c3cc(O)cc(F)c3)c3c(N)ncnc32)cc2cccc(C)c2c1=O .
> 7.00

Give the measured pIC50 of Cc1cccc2cc(Cn3nc(-c4cccc(O)c4)c4c(N)ncnc43)n(C(C)C)c(=O)c12 .
> 7.00

Give the measured pIC50 of Cc1cccc2cc(Cn3nc(-c4cc(O)cc(F)c4)c4c(N)ncnc43)n(-c3ccccc3O)c(=O)c12 .
> 7.00

Give the measured pIC50 of Cc1cccc2cc(Cn3nc(-c4ccc(O)c(Cl)c4)c4c(N)ncnc43)n(-c3ccccc3F)c(=O)c12 .
> 7.00

Give the measured pIC50 of Cc1ccccc1-n1c(Cn2nc(-c3ccc(Cl)c(O)c3)c3c(N)ncnc32)cc2cccc(C)c2c1=O .
> 7.00

###

pIC50: −log10 of the molar value.
Entries below carry reported pIC50 on PIK3CB (Human).

CC(=O)Nc1nc2ccc(-c3nn(Cc4cc5cccc(C)c5c(=O)n4C4CC4)c4ncnc(N)c34)cc2s1 ... > 7.00
Cc1cccc2cc(Cn3nc(-c4cc(O)cc(F)c4)c4c(N)ncnc43)n(C3CC3)c(=O)c12 ... > 7.00
CC(=O)Nc1nc2ccc(-c3nn(Cc4cc5cccc(Cl)c5c(=O)n4C(C)C)c4ncnc(N)c34)cc2s1 ... > 7.00
CC(=O)Nc1nc2ccc(-c3nn(Cc4cc5cccc(Cl)c5c(=O)n4C4CC4)c4ncnc(N)c34)cc2s1 ... > 7.00

Kindly review the next compound as well.
Hi! What's the reported pIC50 for Nc1ncnc2c1c(-c1cc(O)cc(F)c1)nn2Cc1cc2cccc(Cl)c2c(=O)n1C1CC1 on PIK3CB (Human)?
> 7.00

###

pIC50: −log10 of the molar value.
Entries below carry reported pIC50 on PIK3CD (Human) (UniProt O00329).
Sequence (O00329 whole entry, looked up): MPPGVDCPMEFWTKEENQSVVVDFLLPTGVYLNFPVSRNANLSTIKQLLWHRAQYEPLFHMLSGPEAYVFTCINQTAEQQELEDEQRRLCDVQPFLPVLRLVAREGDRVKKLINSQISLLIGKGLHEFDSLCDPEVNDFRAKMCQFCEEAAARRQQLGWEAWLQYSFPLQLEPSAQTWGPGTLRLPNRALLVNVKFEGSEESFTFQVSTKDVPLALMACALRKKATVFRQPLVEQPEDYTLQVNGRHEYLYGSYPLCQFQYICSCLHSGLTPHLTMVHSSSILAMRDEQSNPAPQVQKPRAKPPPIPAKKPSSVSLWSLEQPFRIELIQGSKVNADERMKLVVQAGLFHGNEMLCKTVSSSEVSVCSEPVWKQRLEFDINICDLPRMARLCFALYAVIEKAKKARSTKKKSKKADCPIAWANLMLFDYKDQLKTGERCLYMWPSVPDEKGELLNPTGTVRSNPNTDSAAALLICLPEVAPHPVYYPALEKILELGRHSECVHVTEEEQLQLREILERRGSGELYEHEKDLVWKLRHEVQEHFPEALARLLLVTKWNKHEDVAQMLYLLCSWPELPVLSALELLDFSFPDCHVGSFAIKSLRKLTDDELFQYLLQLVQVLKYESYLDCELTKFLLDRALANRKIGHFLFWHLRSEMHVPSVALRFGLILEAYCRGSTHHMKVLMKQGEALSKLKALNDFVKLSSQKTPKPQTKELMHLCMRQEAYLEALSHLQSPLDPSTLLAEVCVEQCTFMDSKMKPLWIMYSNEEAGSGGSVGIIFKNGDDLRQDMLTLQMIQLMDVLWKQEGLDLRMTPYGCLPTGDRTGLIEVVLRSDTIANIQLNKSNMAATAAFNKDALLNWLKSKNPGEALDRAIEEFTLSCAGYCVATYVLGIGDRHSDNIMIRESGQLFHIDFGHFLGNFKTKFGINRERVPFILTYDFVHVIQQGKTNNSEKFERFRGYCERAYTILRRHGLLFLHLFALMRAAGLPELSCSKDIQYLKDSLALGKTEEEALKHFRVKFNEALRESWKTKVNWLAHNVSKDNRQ

Here are 5 molecules together with their reported answers.
Cc1ccccc1-n1c(Cn2nc(-c3ccc4ncnc(N)c4c3)c3c(N)ncnc32)cc2cccc(C)c2c1=O ... > 7.00
Cc1cccc2cc(Cn3nc(I)c4c(N)ncnc43)n(-c3ccccc3OCCN3CCOCC3)c(=O)c12 ... > 7.00
Cc1ccccc1-n1c(Cn2nc(-c3cccc(O)c3)c3c(N)ncnc32)nc2scc(C)c2c1=O ... > 7.00
COc1ccccc1-n1c(Cn2nc(-c3cc(O)cc(F)c3)c3c(N)ncnc32)cc2cccc(C)c2c1=O ... > 7.00
Cc1csc2nc(Cn3nc(Cl)c4c(N)ncnc43)n(-c3ccccc3C(F)(F)F)c(=O)c12 ... > 7.00

Hi! What's the reported pIC50 for Cc1cccc2cc(Cn3nc(-c4cnn(CCO)c4)c4c(N)ncnc43)n(-c3ccccc3F)c(=O)c12 on PIK3CD (Human) (UniProt O00329)?
> 7.00

Hi! What's the reported pIC50 for Cc1cccc2cc(Cn3nc(-c4cccc(O)c4)c4c(N)ncnc43)n(C3CCCCC3)c(=O)c12 on PIK3CD (Human) (UniProt O00329)?
> 7.00

Hi! What's the reported pIC50 for Cc1ccccc1-n1c(Cn2nc(C#N)c3c(N)ncnc32)cc2cccc(C)c2c1=O on PIK3CD (Human) (UniProt O00329)?
> 7.00

Hi! What's the reported pIC50 for CCc1ccccc1-n1c(Cn2nc(Br)c3c(N)ncnc32)nc2scc(C)c2c1=O on PIK3CD (Human) (UniProt O00329)?
> 7.00

Hi! What's the reported pIC50 for Cc1cccc2cc(Cn3nc(I)c4c(N)ncnc43)n(C3CC3)c(=O)c12 on PIK3CD (Human) (UniProt O00329)?
> 7.00

Hi! What's the reported pIC50 for COc1ccccc1-n1c(Cn2nc(C#C[C@@H](C)O)c3c(N)ncnc32)nc2scc(C)c2c1=O on PIK3CD (Human) (UniProt O00329)?
> 7.00

Hi! What's the reported pIC50 for Cc1ccccc1-n1c(Cn2nc(-c3ccc(F)c(O)c3)c3c(N)ncnc32)cc2cccc(C)c2c1=O on PIK3CD (Human) (UniProt O00329)?
> 7.00

Hi! What's the reported pIC50 for Cc1ccccc1-n1c(Cn2nc(C#C[C@H](C)O)c3c(N)ncnc32)nc2scc(C)c2c1=O on PIK3CD (Human) (UniProt O00329)?
> 7.00

Hi! What's the reported pIC50 for Cc1cccc2cc(Cn3nc(-c4cccc(O)c4)c4c(N)ncnc43)n(-c3ccccc3Cl)c(=O)c12 on PIK3CD (Human) (UniProt O00329)?
> 7.00

Hi! What's the reported pIC50 for Cc1ccccc1-n1c(Cn2nc(Br)c3c(N)ncnc32)cc2cccc(C)c2c1=O on PIK3CD (Human) (UniProt O00329)?
> 7.00

Hi! What's the reported pIC50 for Cc1cccc2cc(Cn3nc(-c4cccc(O)c4)c4c(N)ncnc43)n(-c3ccccc3F)c(=O)c12 on PIK3CD (Human) (UniProt O00329)?
> 7.00

Hi! What's the reported pIC50 for Cc1cccc2cc(Cn3nc(C#C[C@@H](C)O)c4c(N)ncnc43)n(C3CCCCC3)c(=O)c12 on PIK3CD (Human) (UniProt O00329)?
> 7.00

Hi! What's the reported pIC50 for Cc1ccccc1-n1c(Cn2nc(-c3ccc4nc(N)sc4c3)c3c(N)ncnc32)cc2cccc(C)c2c1=O on PIK3CD (Human) (UniProt O00329)?
> 7.00

Hi! What's the reported pIC50 for Cc1ccccc1-n1c(Cn2nc(-c3ccc4nc(N)ncc4c3)c3c(N)ncnc32)cc2cccc(C)c2c1=O on PIK3CD (Human) (UniProt O00329)?
> 7.00

Hi! What's the reported pIC50 for Cc1ccccc1-n1c(Cn2nc(Br)c3c(N)ncnc32)nc2scc(C(F)(F)F)c2c1=O on PIK3CD (Human) (UniProt O00329)?
> 7.00
